- Assay info: yeast display, Sf9 membrane polyspecificity reagent, FACS + sequencing; frameworks hold sequencing errors
Reported property: polyreactivity (PSR sort gate)

polyreactivity (PSR sort gate) for QVQLVESWGGLVQAGGSLRLSCAASGITFSSNAMGWSRQAPGKERELVAAINSGDSTNYADSVKGRFTISRDNAKNTVYLQMNSLKPEDTAVYDCAKRYRRRFNYWGQGTQVTVSS ?
high polyreactivity

Proceed to QVQLVESGGGLVQAGGSHRLSCAASGRTFRRNTMGWYRQAPGKERELVAAISSSGSSTYYADSVKGRFTISRDNAKNSVYLQMNSLKPEDTAVYYCAATGYPRFGYWGQGTQVTVSS
high polyreactivity

====

- Assay info: yeast display, Sf9 membrane polyspecificity reagent, FACS + sequencing; frameworks hold sequencing errors
Reported property: polyreactivity (PSR sort gate)

Some entries whose results are on file:
polyreactivity (PSR sort gate) for QVQLVESGGGLVQAGGSLRLSCAASGSMFVRYAMGWYRQAPGKERELVAAISSDGNTYYADSVKGRFTISRDNAKNTVYLPRNSLKPEDTAVYYCAAKTRSRYYWGQGTQVTVSS ?
high polyreactivity

Proceed to QVQLVESGGGLVQAGGSLRLSCAASGRTFIVYAMGWYRQAPGKERELVAAISGRGGGNTYYADSVKGSFTISRDNAKNTVYLQMNSLKPEDTAVYYCAADTYSWYSYRDYYYWGQGTQVTVSS
low polyreactivity

Proceed to QVQLVESGGGLVQAGGSLRLSCAASGSTFTAYAMGWYRQAPGKERELVAAINWSGGTTYYADSVKGRFTISRDNAKNTVYLQMNSLKPEDTAVYSCAVDGNFFGEVRPYDYWGQGTQVTVSS
low polyreactivity

Proceed to QVQLVESGGGLVQARGSLRLSCAASGSTFLFYAMGWYRQPPGKERELVAAISRGDSTYYAESVKGRFTISRDIAKNTVYLQMNSLKPEDTAVYYCAAGYNHLYVYRMYYWGQGTQVTVSS
high polyreactivity

Proceed to QVQLVESGGGLVQAGGSLRLSCAASGRTFDYYAMGWYRQAPRKERELVAAISSGGSTNYADSVKGRFTISRDNAKNTVYLQMNSLKPEATAVYYCAVSGIDDVKYDYWGQGTQVTVSS
low polyreactivity

Next:
polyreactivity (PSR sort gate) for QVQLVESGGGLVQAGGSLRLSCAASGITFDDNAMAWYRQAPGKERELVATISDGGRTYYADSVKGRFTISRDNAKNTVFLQMNILKPEDTGVYYCAAGYPYYHVYGYGYWGQGTLVTVSS ?
low polyreactivity

Proceed to QVQLVESGGGLVQAGGSLRLSCAASGSTFTVNAMGWYRQAPGKERELVAVIRKSGTSTYYADSVKGRFTISRDNAKNTVYFQMNSLKPEDTAVYYCAGGGPSTLDDYWGQGTQVTVSS
low polyreactivity

Proceed to QVQLVESGGGLVQAGGSLRLSCAASGSIFDWYVMGWYRQPPGKERELVATITRDGSTNYADSVKGRFTISRDNAKNTVYLQMNSLKPEDTAVYYCNAASRAYGYNYWGQGTQVTVSS
low polyreactivity

Proceed to QVQLVESGGGLVQPGGSLRLSCAASGFTFSKYAMGWYRQAPGKERELVAAISRSAGSTYYADSVKGRFTISRDNAKNTVYLQMNSLKPEDTAVYYCARDNPRRPSGYNYWGQGTQVTVSS
high polyreactivity

Proceed to QVQLQESGGGLVQAGGSLRLTCAASGSISRLDYMGWYRQASGKERELVAAIDNGSTTYYADSVKGRLTISRDNAKYTVYLQMNSLKPEDTAVYFCAAVRGRGGTHAYWGQGTQVTVSG
low polyreactivity

Proceed to QVQLVESAAGLVQAGASLRLSCAASGRTSTQNAMGWYRQAPGKERELVAAITTGGGSTYYADSVKGRFTISRDNAKYTVYLQMNSLKPEDTAVYYCAARTPQRSEWTQYGYWGQGTQVTVSS
low polyreactivity
